experimental-protocol: Plasma pharmacokinetics in rats after a 30-min intravenous infusion of Kang-Ai injection
Type: in vivo, Sprague–Dawley rats
cond: male, Sprague-Dawley; rat plasma; 30-min iv infusion of Kang-Ai injection 6 mL/kg; read-out: t1/2 (converted)
measured-property: half-life
Hi, when you answer, please include the unit after the number. Thanks!

Would you please look over these solved cases?
Consider the molecule shown here: CC(C)=CCC[C@](C)(O[C@@H]1O[C@H](CO)[C@@H](O)[C@H](O)[C@H]1O)[C@H]1CC[C@]2(C)[C@@H]1[C@H](O)C[C@@H]1[C@@]3(C)CC[C@H](O)C(C)(C)[C@@H]3[C@@H](O[C@@H]3O[C@H](CO)[C@@H](O)[C@H](O)[C@H]3O)C[C@]12C [Compound C6, Ginsenoside Rg1] What is its recorded half-life?
1.2 h

Same lookup for CC(C)=CCC[C@](C)(O[C@@H]1O[C@H](CO[C@@H]2O[C@H](CO)[C@@H](O)[C@H](O)[C@H]2O)[C@@H](O)[C@H](O)[C@H]1O)[C@H]1CC[C@]2(C)[C@@H]1[C@H](O)C[C@@H]1[C@@]3(C)CC[C@H](O[C@@H]4O[C@H](CO)[C@@H](O)[C@H](O)[C@H]4O[C@@H]4O[C@H](CO)[C@@H](O)[C@H](O)[C@H]4O)C(C)(C)[C@@H]3CC[C@]12C [Compound D5, Ginsenoside Rb1] , please.
7.22 h

***
Consider the molecule shown here: CC(C)=CCC[C@](C)(O[C@@H]1O[C@H](CO)[C@@H](O)[C@H](O)[C@H]1O)[C@H]1CC[C@]2(C)[C@@H]1[C@H](O)C[C@@H]1[C@@]3(C)CC[C@H](O[C@@H]4O[C@H](CO)[C@@H](O)[C@H](O)[C@H]4O[C@@H]4O[C@H](CO)[C@@H](O)[C@H](O)[C@H]4O)C(C)(C)[C@@H]3CC[C@]12C [Compound D2, Ginsenoside Rd] What is its recorded half-life?
5.84 h

###

Below, each entry is listed alongside its reported IC50.
assayed-target: CYP2C9 (Homo sapiens)
Sequence (P11712 whole entry): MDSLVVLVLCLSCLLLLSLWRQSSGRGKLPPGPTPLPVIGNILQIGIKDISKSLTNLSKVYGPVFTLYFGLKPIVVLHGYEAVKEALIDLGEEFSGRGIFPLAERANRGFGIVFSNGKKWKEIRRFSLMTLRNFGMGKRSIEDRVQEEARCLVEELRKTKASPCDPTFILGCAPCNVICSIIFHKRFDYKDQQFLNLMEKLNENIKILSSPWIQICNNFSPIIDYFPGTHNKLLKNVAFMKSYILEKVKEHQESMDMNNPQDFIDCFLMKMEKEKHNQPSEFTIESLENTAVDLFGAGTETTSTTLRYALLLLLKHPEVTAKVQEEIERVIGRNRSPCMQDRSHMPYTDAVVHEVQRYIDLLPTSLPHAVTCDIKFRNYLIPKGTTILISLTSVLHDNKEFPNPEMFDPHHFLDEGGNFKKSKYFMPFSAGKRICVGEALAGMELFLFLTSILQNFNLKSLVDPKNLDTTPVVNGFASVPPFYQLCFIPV
experimental-protocol: Inhibition of recombinant CYP2C9 (probe tolbutamide)
Format: in vitro ADME
cond: recombinant isozyme; mean ± SD of triplicate; unit not given (IC50 classes in μM); read-out: IC50 towards CYP2C9

Consider the compound shown here: CC(C)=CCC[C@](C)(O[C@@H]1O[C@H](CO)[C@@H](O)[C@H](O)[C@H]1O)[C@H]1CC[C@]2(C)[C@@H]1[C@H](O)C[C@@H]1[C@@]3(C)CC[C@H](O[C@@H]4O[C@H](CO)[C@@H](O)[C@H](O)[C@H]4O[C@@H]4O[C@H](CO)[C@@H](O)[C@H](O)[C@H]4O)C(C)(C)[C@@H]3CC[C@]12C [Compound D2, Ginsenoside Rd] What is its recorded IC50?
> 100 µM

Same lookup for CC(C)=CCC[C@](C)(O[C@@H]1O[C@H](CO[C@@H]2O[C@H](CO)[C@@H](O)[C@H](O)[C@H]2O)[C@@H](O)[C@H](O)[C@H]1O)[C@H]1CC[C@]2(C)[C@@H]1[C@H](O)C[C@@H]1[C@@]3(C)CC[C@H](O[C@@H]4O[C@H](CO)[C@@H](O)[C@H](O)[C@H]4O[C@@H]4O[C@H](CO)[C@@H](O)[C@H](O)[C@H]4O)C(C)(C)[C@@H]3CC[C@]12C [Compound D5, Ginsenoside Rb1] , please.
8.8 µM

Same lookup for CC(C)=CCC[C@](C)(O[C@@H]1O[C@H](CO)[C@@H](O)[C@H](O)[C@H]1O)[C@H]1CC[C@]2(C)[C@@H]1[C@H](O)C[C@@H]1[C@@]3(C)CC[C@H](O)C(C)(C)[C@@H]3[C@@H](O[C@@H]3O[C@H](CO)[C@@H](O)[C@H](O)[C@H]3O[C@@H]3O[C@@H](C)[C@H](O)[C@@H](O)[C@H]3O)C[C@]12C [Compound C9, Ginsenoside Re] , please.
> 100 µM

###

assayed-target: CYP2C8 (Homo sapiens)
Sequence (P10632 whole entry): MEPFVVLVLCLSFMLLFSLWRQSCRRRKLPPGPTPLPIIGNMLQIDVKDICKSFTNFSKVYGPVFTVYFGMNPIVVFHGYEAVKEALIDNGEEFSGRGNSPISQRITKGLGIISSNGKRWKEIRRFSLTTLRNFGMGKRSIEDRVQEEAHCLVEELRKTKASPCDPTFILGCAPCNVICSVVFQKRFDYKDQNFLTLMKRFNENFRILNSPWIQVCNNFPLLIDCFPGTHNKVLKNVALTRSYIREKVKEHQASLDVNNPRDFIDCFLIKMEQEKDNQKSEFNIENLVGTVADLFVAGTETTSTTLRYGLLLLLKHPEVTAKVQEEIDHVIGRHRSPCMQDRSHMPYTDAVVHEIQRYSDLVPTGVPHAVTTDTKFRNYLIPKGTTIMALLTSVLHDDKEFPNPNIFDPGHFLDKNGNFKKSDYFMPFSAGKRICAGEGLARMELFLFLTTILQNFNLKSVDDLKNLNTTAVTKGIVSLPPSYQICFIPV
experimental-protocol: Inhibition of recombinant CYP2C8 (probe paclitaxel)
Assay type: in vitro ADME
cond: recombinant isozyme; mean ± SD of triplicate; unit not given (IC50 classes in μM); read-out: IC50 towards CYP2C8
Method: In this study, phenacetin (100 μM), coumarin (100 μM), bupropion (100 μM), paclitaxel (60 μM), tolbutamide (200 μM), mephenytoin (100 μM), chlorzoxazone (200 μM) and nifedipine (40 μM) have been used as the probe substrates for CYP1A2, 2A6, 2B6, 2C8, 2C9, 2C19, 2E1 and 3A4, respectively.
measured-property: IC50 (µM)
Unit µM implied. Number only.

API: value(readout=IC50, system=CYP2C8 (Homo sapiens)) for record CC(C)=CCC[C@](C)(O[C@@H]1O[C@H](CO)[C@@H](O)[C@H](O)[C@H]1O)[C@H]1CC[C@]2(C)[C@@H]1[C@H](O)C[C@@H]1[C@@]3(C)CC[C@H](O)C(C)(C)[C@@H]3[C@@H](O[C@@H]3O[C@H](CO)[C@@H](O)[C@H](O)[C@H]3O[C@@H]3O[C@@H](C)[C@H](O)[C@@H](O)[C@H]3O)C[C@]12C [Compound C9, Ginsenoside Re]
24

###

assayed-target: CYP2E1 (Homo sapiens, UniProt P05181)
Sequence (P05181 whole entry): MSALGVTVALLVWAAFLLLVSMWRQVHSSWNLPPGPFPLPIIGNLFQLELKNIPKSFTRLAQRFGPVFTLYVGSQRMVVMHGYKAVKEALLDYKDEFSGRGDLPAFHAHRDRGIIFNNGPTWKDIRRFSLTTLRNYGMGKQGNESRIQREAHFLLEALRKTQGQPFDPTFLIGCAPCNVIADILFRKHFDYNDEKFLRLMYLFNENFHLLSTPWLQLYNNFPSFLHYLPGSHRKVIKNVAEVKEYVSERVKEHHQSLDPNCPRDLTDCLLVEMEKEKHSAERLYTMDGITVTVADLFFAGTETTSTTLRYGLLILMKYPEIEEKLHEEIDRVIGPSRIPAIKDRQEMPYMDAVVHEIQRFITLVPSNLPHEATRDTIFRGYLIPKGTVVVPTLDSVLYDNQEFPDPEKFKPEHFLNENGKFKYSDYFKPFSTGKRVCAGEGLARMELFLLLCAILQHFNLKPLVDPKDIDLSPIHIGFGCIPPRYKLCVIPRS
experimental-protocol: Inhibition of recombinant CYP2E1 (probe chlorzoxazone)
cond: read-out: IC50 towards CYP2E1; recombinant isozyme; mean ± SD of triplicate; unit not given (IC50 classes in μM)
measured-property: IC50

Consider the compound shown here: CC(C)(O)[C@@H]1CC[C@](C)([C@H]2[C@@H](O)C[C@@]3(C)[C@@H]4C[C@H](O[C@@H]5O[C@H](CO)[C@@H](O)[C@H](O)[C@H]5O)[C@H]5C(C)(C)[C@@H](O[C@@H]6OC[C@@H](O)[C@H](O)[C@H]6O)CC[C@@]56C[C@@]46CC[C@]23C)O1 [Compound B2, Astragaloside IV] What is its recorded IC50?
> 100 µM

###

Below, each entry is listed alongside its reported CL renal.
experimental-protocol: Urinary (renal) excretion in rats after a 30-min infusion of Kang-Ai injection
Assay type: in vivo, Sprague–Dawley rats
cond: male, Sprague-Dawley, in vivo; rat; Kang-Ai injection 6 mL/kg iv; read-out: CLR (renal excretory clearance) (converted)
Unit mL/min implied. Number only.

Consider the compound shown here: O=C1C=CC[C@@H]2[C@H]3CCC[N+]4([O-])CCC[C@@H](CN12)[C@@H]34 (some centres unmarked) What is its recorded CL renal?
0.0792

***
Consider the compound shown here: CC(C)=CCC[C@](C)(O)[C@H]1CC[C@]2(C)[C@@H]1[C@H](O)C[C@@H]1[C@@]3(C)CC[C@H](O)C(C)(C)[C@@H]3[C@@H](O[C@@H]3O[C@H](CO)[C@@H](O)[C@H](O)[C@H]3O)C[C@]12C [Compound C1, Ginsenoside Rh1] What is its recorded CL renal?
0.316

###

experimental-protocol: Plasma pharmacokinetics in rats after a 30-min intravenous infusion of Kang-Ai injection
Format: in vivo, Sprague–Dawley rats
cond: male, Sprague-Dawley, plasma; rat; 30-min iv infusion of Kang-Ai injection 6 mL/kg; Table 1 unit; read-out: CLtot, p (converted)
Below, each entry is listed alongside its reported clearance.
Unit mL/min implied. Number only.

Would you please look over these solved cases?
Consider the compound shown here: CC(C)=CCC[C@](C)(O[C@@H]1O[C@H](CO[C@@H]2O[C@H](CO)[C@@H](O)[C@H](O)[C@H]2O)[C@@H](O)[C@H](O)[C@H]1O)[C@H]1CC[C@]2(C)[C@@H]1[C@H](O)C[C@@H]1[C@@]3(C)CC[C@H](O[C@@H]4O[C@H](CO)[C@@H](O)[C@H](O)[C@H]4O[C@@H]4O[C@H](CO)[C@@H](O)[C@H](O)[C@H]4O)C(C)(C)[C@@H]3CC[C@]12C [Compound D5, Ginsenoside Rb1] What is its recorded clearance?
0.103

Same lookup for CC(C)=CCC[C@](C)(O[C@@H]1O[C@H](CO)[C@@H](O)[C@H](O)[C@H]1O)[C@H]1CC[C@]2(C)[C@@H]1[C@H](O)C[C@@H]1[C@@]3(C)CC[C@H](O)C(C)(C)[C@@H]3[C@@H](O[C@@H]3O[C@H](CO)[C@@H](O)[C@H](O)[C@H]3O)C[C@]12C [Compound C6, Ginsenoside Rg1] , please.
2.61

In the following, a different compound is considered.
Consider the compound shown here: CC(C)=CCC[C@](C)(O[C@@H]1O[C@H](CO[C@@H]2OC[C@H](O)[C@H](O)[C@H]2O)[C@@H](O)[C@H](O)[C@H]1O)[C@H]1CC[C@]2(C)[C@@H]1[C@H](O)C[C@@H]1[C@@]3(C)CC[C@H](O[C@@H]4O[C@H](CO)[C@@H](O)[C@H](O)[C@H]4O[C@@H]4O[C@H](CO)[C@@H](O)[C@H](O)[C@H]4O)C(C)(C)[C@@H]3CC[C@]12C [Compound D4, Ginsenoside Rb2] What is its recorded clearance?
0.13
